Ref: the supplement of paper PMC6555819

Test system: PPARg:RXRa 30nM:10nM, anti-RXR (NR concentration 30 nM, RXRa partner concentration 10 nM)
assay_info: PBM binding z-score (relative to random genomic background probes); higher = stronger binding; sequences stand for … in GC…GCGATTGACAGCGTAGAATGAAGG
Provide the recorded PBM binding z-score for the entries that follow.
Give bare numbers.

Answered cases to consult:
{"macromolecule_sequence": "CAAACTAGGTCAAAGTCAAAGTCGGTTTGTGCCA", "PBM binding z-score": 6.17}
{"macromolecule_sequence": "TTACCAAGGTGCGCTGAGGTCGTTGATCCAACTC", "PBM binding z-score": -0.287}

// each sequence listed below needs its PBM binding z-score
1. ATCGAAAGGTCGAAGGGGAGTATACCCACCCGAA
2. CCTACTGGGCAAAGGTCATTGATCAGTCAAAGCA
3. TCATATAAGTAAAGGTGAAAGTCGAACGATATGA
4. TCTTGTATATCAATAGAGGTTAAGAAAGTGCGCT
5. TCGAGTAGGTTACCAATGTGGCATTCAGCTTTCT

1: 1.16; 2: 5.9; 3: 3.99; 4: 3.02; 5: 0.936

---

Test system: PPARg:RXRa 30nM:10nM, anti-RXR (NR concentration 30 nM, RXRa partner concentration 10 nM)
assay_info: PBM binding z-score (relative to random genomic background probes); higher = stronger binding; sequences stand for … in GC…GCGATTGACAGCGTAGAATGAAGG
// classify(record): look up PBM binding z-score in ranges bucket 1: < 0.5; bucket 2: ≥ 0.5 and < 2; bucket 3: ≥ 2

{"macromolecule_sequence": "CCTACCGGGCCACGAAAGGTCATTGATTCAGTGA", "assigned_class": "bucket 2"}
{"macromolecule_sequence": "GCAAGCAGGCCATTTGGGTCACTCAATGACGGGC", "assigned_class": "bucket 1"}
{"macromolecule_sequence": "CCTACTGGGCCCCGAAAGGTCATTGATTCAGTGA", "assigned_class": "bucket 1"}
{"macromolecule_sequence": "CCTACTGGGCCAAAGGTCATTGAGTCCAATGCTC", "assigned_class": "bucket 3"}
{"macromolecule_sequence": "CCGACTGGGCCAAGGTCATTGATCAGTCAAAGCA", "assigned_class": "bucket 2"}

Assign a category based on measured PBM binding z-score for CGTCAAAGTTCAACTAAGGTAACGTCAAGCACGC and give only the class name. bucket 3

Assign a category based on measured PBM binding z-score for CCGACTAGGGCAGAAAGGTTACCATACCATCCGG and give only the class name. bucket 2

Assign a category based on measured PBM binding z-score for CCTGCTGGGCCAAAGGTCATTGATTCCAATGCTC and give only the class name. bucket 3

Assign a category based on measured PBM binding z-score for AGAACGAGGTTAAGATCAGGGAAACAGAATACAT and give only the class name. bucket 2

Assign a category based on measured PBM binding z-score for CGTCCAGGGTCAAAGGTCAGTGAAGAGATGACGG and give only the class name. bucket 3

Assign a category based on measured PBM binding z-score for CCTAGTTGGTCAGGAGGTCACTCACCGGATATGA and give only the class name. bucket 2

Assign a category based on measured PBM binding z-score for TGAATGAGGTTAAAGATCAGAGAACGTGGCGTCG and give only the class name. bucket 3

Assign a category based on measured PBM binding z-score for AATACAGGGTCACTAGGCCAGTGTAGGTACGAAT and give only the class name. bucket 3

Assign a category based on measured PBM binding z-score for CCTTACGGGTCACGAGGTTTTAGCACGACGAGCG and give only the class name. bucket 3

Assign a category based on measured PBM binding z-score for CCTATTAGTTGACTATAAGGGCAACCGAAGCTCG and give only the class name. bucket 1

Assign a category based on measured PBM binding z-score for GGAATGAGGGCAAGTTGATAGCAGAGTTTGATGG and give only the class name. bucket 1

Assign a category based on measured PBM binding z-score for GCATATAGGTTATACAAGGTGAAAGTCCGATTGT and give only the class name. bucket 2
